molecular target: UniProt:P30411; experiment: Displacement of [3H]BK from human B2 receptor transfected in CHO cells
Catalogue of pKi readings, one per entry.
A value of pKi is the negative decimal logarithm of a concentration given in moles per litre.

Use the examples below as a reference point.
INSERT INTO assay_data (molecular_string, result_number) VALUES
  ('Cc1ccc2cccc(OCc3c(Cl)ccc(S(=O)(=O)NC(C)(C)C(=O)NCCCCN)c3Cl)c2n1', 6.70),
  ('Cc1cc(C)c2cccc(OCc3c(Cl)ccc(S(=O)(=O)NC(C)(C)C(=O)N4CCN(C(=O)C[C@@H](N)CCCCN(C)C)CC4)c3Cl)c2n1', 9.30),
  ('Cc1cc(C)c2cccc(OCc3c(Cl)ccc(S(=O)(=O)N4CCC[C@@H]4C(=O)NCCCNC(=O)c4ccc(C(=N)N)cc4)c3Cl)c2n1', 9.10),
  ('Cc1ccc2cccc(OCc3c(Cl)ccc(S(=O)(=O)NC(C)(C)C(=O)N4CCN(CCN=C(N)N)CC4)c3Cl)c2n1', 8.00);

What measured pKi goes with Cc1ccc2cccc(OCc3c(Cl)ccc(S(=O)(=O)NC(C)(C)C(=O)NCCCNCc4ccc(O)cc4)c3Cl)c2n1 ? 7.10

Quick one: pKi for COCCCNC(=O)C(C)(C)NS(=O)(=O)c1ccc(Cl)c(COc2cccc3ccc(C)nc23)c1Cl ? 6.40

Look at this compound and give its reported pKi. Cc1ccc2cccc(OCc3c(Cl)ccc(S(=O)(=O)NC(C)(C)C(=O)NCCN)c3Cl)c2n1 7.00

Quick one: pKi of Cc1ccc2cccc(OCc3c(Cl)ccc(S(=O)(=O)NC(C)(C)C(=O)NCCCN4CCN(C)CC4)c3Cl)c2n1 ? 6.60

----------
Target: B2 bradykinin receptor (Homo sapiens)
Sequence (P30411 whole entry): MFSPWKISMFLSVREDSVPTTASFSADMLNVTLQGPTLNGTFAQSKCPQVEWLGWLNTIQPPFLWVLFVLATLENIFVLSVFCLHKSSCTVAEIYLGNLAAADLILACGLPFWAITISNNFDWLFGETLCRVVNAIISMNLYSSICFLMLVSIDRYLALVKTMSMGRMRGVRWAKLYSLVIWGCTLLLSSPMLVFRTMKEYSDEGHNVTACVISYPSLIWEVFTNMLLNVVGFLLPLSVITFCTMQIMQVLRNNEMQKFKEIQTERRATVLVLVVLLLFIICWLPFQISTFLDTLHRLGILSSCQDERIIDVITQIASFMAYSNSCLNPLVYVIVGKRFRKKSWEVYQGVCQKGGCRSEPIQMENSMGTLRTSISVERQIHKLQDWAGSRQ
Experiment: Displacement of [3H]BK from human B2 receptor transfected in CHO cells
pKi: −log10 of the molar value.
Label rule, in plain words: pKi of 8 and up is Met, under 8 is Not met.

Solved entries:
INSERT INTO measurements (molecular_string, group_label) VALUES
  ('Cc1ccc2cccc(OCc3c(Cl)ccc(S(=O)(=O)NC(C)(C)C(=O)NCCCNCc4ccc(Cl)cc4)c3Cl)c2n1', 'Not met'),
  ('Cc1cc(C)c2cccc(OCc3c(Cl)ccc(S(=O)(=O)NC(C)(C)C(=O)NCCCN)c3Cl)c2n1', 'Not met'),
  ('Cc1ccc2cccc(OCc3c(Cl)ccc(S(=O)(=O)NC(C)(C)C(=O)NCCCN=C(N)N)c3Cl)c2n1', 'Not met'),
  ('Cc1ccc2cccc(OCc3c(Cl)ccc(S(=O)(=O)NC(C)(C)C(=O)N4CCN(C(=O)C[C@@H](N)CCCN(C)C)CC4)c3Cl)c2n1', 'Met'),
  ('Cc1ccc2cccc(OCc3c(Cl)ccc(S(=O)(=O)NC(C)(C)C(=O)N4CCN(C(=O)C[C@@H](N)CCCCN=C(N)N)CC4)c3Cl)c2n1', 'Met');

Record Cc1ccc2cccc(OCc3c(Cl)ccc(S(=O)(=O)NC(C)(C)C(=O)N4CCCNCC4)c3Cl)c2n1 ; criterion: pKi no lower than 8. Met? Not met

Can Cc1cc(C)c2cccc(OCc3c(Cl)ccc(S(=O)(=O)NC(C)(C)C(=O)N4CCN(C(=O)[C@@H](N)CCCN(C)C)CC4)c3Cl)c2n1 be said to have pKi at or above 8? Met

Evaluate Cc1ccc2cccc(OCc3c(Cl)ccc(S(=O)(=O)NC(C)(C)C(=O)NC4CCNCC4)c3Cl)c2n1 : pKi at minimum 8? Not met

# check: pKi of Cc1ccc2cccc(OCc3c(Cl)ccc(S(=O)(=O)NC(C)(C)C(=O)NCCCNCc4ccccn4)c3Cl)c2n1 is greater than or equal to 8 Not met

Does pKi meet or surpass 8 for Cc1ccc2cccc(OCc3c(Cl)ccc(S(=O)(=O)NC(C)(C)C(=O)N4CCN(CCCCCCN=C(N)N)CC4)c3Cl)c2n1 ? Met

Entry Cc1ccc2cccc(OCc3c(Cl)ccc(S(=O)(=O)NC(C)(C)C(=O)N4CCN(C(=N)NCCCN)CC4)c3Cl)c2n1 : is its pKi no less than 8? Met

API: above_or_equal(metric=pKi, cutoff=8) for item Cc1ccc2cccc(OCc3c(Cl)ccc(S(=O)(=O)NC(C)(C)C(=O)NCCCN4CCOCC4)c3Cl)c2n1 Not met

Answer whether pKi of Cc1ccc2cccc(OCc3c(Cl)ccc(S(=O)(=O)NC(C)(C)C(=O)NCCCNCc4ccc(S(C)(=O)=O)cc4)c3Cl)c2n1 is greater than or equal to 8. Not met

Dear colleague, could you confirm whether Cc1ccc2cccc(OCc3c(Cl)ccc(S(=O)(=O)NC(C)(C)C(=O)NCCN4CCCCC4)c3Cl)c2n1 has pKi at or above 8? Not met

Please tell me: is the compound Cc1ccc2cccc(OCc3c(Cl)ccc(S(=O)(=O)NC(C)(C)C(=O)N4CCN(C(=O)[C@@H](N)CCCN(C)C)CC4)c3Cl)c2n1 at or over 8 in terms of pKi? Met
